target: fIL, fluorescently labelled H14 foldamer IL; assay: fluorescence polarisation; direct FP: S100 protein diluted in 50 nM labeled foldamer, 20 mM HEPES pH 7.5, 150 mM NaCl, 1 mM CaCl2, 0.5 mM TCEP, 0.01% Tween20; quadratic fit (ProFit); detection threshold Kd 1 mM
Examples of binders with documented Kd follow.

Example binders with recorded Kd:
S100A3 (natural protein) MARPLEQAVAAIVCTFQEYAGRCGDKYKLCQAELKELLQKELATWTPTEFRECDYNKFMSVLDTNKDCEVDFVEYVRSLACLCLYCHEYFKDCPSEPPCSQ
> 1000 µM
S100A5 (natural protein) METPLEKALTTMVTTFHKYSGREGSKLTLSRKELKELIKKELCLGEMKESSIDDLMKSLDKNSDQEIDFKEYSVFLTMLCMAYNDFFLEDNK
75 µM
S100A8 (natural protein) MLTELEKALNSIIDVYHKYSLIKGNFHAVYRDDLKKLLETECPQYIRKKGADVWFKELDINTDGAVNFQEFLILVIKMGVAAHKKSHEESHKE
> 1000 µM

Entry S100G (natural protein) MSTKKSPEELKRIFEKYAAKEGDPDQLSKDELKLLIQAEFPSLLKGPNTLDDLFQELDKNGDGEVSFEEFQVLVKKISQ : reported Kd = ?
> 1000 µM
